Molecular target: Ba/F3 cell EGFR Exon20 ins NPH (Homo sapiens, UniProt P00533, INS773NPH)
Construct: expressed in transfected cells; host or cells: Ba/F3
Assay: Ba/F3 cell proliferation suppression, EGFR Exon20 ins NPH
Format: cell-based
Settings: GI50 class; Ba/F3 cell line with NPH inserted at Exon20 of EGFR; 72 hours
OBSERVED_PROPERTY: Ba/F3 (NPH) Activity

Examples with their reported Ba/F3 (NPH) Activity follow.
[[record]]
structure_smiles_string = "C=CC(=O)Nc1cc(Nc2cc(N3OCC[C@@H]3Cc3cccc(Cl)c3C)ncn2)c(OC)cc1N1CCC(N2CCN(C3CC3)[C@H](C)C2)CC1"
experimental_value = "A (GI50 < 50 nM)"

[[record]]
structure_smiles_string = "C=CC(=O)Nc1cc(Nc2cc(N3OCC[C@@H]3c3c(F)ccc(F)c3F)ncn2)c(OC)cc1N1CCC(N2CCN(C(C)C)CC2)CC1"
experimental_value = "A (GI50 < 50 nM)"

[[record]]
structure_smiles_string = "C=CC(=O)Nc1cc(Nc2cc(N3OCC[C@@H]3c3ccc(F)c(F)c3F)ncn2)c(OC)cc1N1CCC(N2C[C@@H](C)O[C@@H](C)C2)CC1"
experimental_value = "A (GI50 < 50 nM)"

[[record]]
structure_smiles_string = "C=CC(=O)Nc1cc(Nc2cc(N3OCC[C@@H]3c3cccc4ccccc34)ncn2)c(OC)cc1N1CCC(N2CCN(C)CC2)CC1"
experimental_value = "A (GI50 < 50 nM)"


get_value(item= C=CC(=O)Nc1cc(Nc2cc(N3OCC[C@@H]3c3ccc(F)c(F)c3)ncn2)c(OC)cc1N1CCC(N2CCN(CC)CC2)CC1 , readout=Ba/F3 (NPH) Activity) returns A (GI50 < 50 nM)

get_value(item= C#Cc1cccc([C@H]2CCON2c2cc(Nc3cc(NC(=O)C=C)c(N4CCC(N5CCN(C6CCC6)CC5)CC4)cc3OC)ncn2)c1 , readout=Ba/F3 (NPH) Activity) returns A (GI50 < 50 nM)

get_value(item= C=CC(=O)Nc1cc(Nc2cc(N3OCC[C@@H]3c3ccc(Cl)c(F)c3)ncn2)c(OC)cc1N1C[C@H]2C[C@@H]1CO2 , readout=Ba/F3 (NPH) Activity) returns A (GI50 < 50 nM)

get_value(item= C=CC(=O)Nc1cc(Nc2cc(N3OCC[C@@H]3c3cccc(F)c3F)ncn2)c(OC)cc1N1CCN(C(C)C)CC1 , readout=Ba/F3 (NPH) Activity) returns A (GI50 < 50 nM)

Value source: patent US12157730B2
